CONDITION_INFO: 293.15 K; 100 kPa; Liquid; Vibrating tube method
Numbers after ± are expanded uncertainties.
READOUT: mass density

COMPOUND	READOUT	RESULT
CCCCCCCCCC [decane]	mass density	731.14 ± 0.23 kg/m3
CCCCCCCCCCC [undecane]	mass density	740.28 ± 0.32 kg/m3
C1CC[C@H]2CCCC[C@H]2C1 [cis-decahydronaphthalene]	mass density	896.85 ± 0.48 kg/m3
CCCCCCCCC [nonane]	mass density	717.94 ± 0.24 kg/m3

Now look at this one.
Task item: What value of mass density has been recorded for this entry: C1CC[C@H]2CCCC[C@@H]2C1 [trans-decahydronaphthalene]
Reply: 869.78 ± 0.13 kg/m3

Source: the NIST ThermoML archive (doi:10.1021/je400250u)
